# TGT: Eukaryotic translation initiation factor 4E (Mus musculus) + Eukaryotic translation initiation factor 4 gamma 1 (Homo sapiens) (UniProt P63073+Q04637)
# Sequence (P63073 whole entry, looked up, the tested form may be a part): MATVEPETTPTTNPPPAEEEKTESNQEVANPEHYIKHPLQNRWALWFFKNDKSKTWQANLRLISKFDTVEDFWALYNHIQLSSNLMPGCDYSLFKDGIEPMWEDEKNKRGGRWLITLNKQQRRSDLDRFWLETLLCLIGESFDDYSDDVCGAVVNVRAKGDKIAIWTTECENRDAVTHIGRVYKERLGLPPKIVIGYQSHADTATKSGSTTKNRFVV
# Sequence (Q04637 whole entry, looked up, the tested form may be a part): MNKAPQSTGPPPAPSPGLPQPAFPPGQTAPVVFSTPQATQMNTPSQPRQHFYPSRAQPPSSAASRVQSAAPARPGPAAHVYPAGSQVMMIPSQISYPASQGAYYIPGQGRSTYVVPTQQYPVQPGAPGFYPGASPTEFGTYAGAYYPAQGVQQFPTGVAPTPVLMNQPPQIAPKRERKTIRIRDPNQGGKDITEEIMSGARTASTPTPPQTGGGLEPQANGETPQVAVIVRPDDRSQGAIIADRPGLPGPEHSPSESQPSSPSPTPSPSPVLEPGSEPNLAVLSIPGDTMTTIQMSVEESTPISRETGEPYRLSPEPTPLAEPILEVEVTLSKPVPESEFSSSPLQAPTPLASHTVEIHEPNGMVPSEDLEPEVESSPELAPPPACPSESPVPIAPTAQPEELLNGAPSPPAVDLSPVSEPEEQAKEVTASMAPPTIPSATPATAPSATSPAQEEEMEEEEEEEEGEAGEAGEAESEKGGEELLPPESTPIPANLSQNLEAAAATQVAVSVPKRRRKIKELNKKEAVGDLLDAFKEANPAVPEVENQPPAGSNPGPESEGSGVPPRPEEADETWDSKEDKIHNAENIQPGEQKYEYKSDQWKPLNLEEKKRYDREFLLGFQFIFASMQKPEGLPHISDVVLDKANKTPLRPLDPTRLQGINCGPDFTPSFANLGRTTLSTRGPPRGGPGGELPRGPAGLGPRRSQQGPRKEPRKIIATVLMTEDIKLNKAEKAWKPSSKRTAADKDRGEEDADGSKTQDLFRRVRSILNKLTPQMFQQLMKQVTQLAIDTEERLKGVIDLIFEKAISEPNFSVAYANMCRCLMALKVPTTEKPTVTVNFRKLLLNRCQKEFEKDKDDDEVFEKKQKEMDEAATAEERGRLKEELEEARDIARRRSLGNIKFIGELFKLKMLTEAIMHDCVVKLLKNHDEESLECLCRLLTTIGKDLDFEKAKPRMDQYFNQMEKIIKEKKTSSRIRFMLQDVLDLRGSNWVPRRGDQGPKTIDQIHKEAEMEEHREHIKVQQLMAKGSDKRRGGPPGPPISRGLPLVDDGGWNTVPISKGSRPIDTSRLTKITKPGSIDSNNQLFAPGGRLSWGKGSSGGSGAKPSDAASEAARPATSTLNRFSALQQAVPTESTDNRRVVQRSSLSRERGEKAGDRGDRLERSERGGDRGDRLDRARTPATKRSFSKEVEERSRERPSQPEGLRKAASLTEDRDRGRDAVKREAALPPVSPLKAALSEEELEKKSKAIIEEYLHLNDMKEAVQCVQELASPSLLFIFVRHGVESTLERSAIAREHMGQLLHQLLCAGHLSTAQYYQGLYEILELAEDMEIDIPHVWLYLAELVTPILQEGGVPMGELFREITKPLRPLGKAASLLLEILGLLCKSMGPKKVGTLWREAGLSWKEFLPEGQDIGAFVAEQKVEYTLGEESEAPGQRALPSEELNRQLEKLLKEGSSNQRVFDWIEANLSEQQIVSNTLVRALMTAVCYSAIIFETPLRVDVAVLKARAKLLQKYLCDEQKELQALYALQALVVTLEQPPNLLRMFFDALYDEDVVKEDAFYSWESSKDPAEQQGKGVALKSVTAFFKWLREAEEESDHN
# TEST PROTOCOL: eIF4E–eIF4G protein interaction inhibitors, primary screen, biochemical, uHTS, TR-FRET, eIF4GI fragment (AID 782);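 also: 0% = full FRET control wells and 100% = background wells lacking eIF4GI fragment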
# DETAILS: TR-FRET eIF4E-eIF4GI(517-606) binding, 2 h; at 21.7 µM; hits give high values
Screen size: about 220,000 compounds; about 800 (0.36%) were called active. The sample holds actives, similar compounds and a random draw of the others, so the mix is not that of the screen.
Parameter inhibition: see the listing below.
REPORTED ENDPOINT: inhibition

>>> value_measured("Cc1cc2nc3c(=O)n(Cc4ccccc4)c(=O)[nH]c3nc2cc1N")
"7.59% (inactive)"
>>> value_measured("C=CCn1c(SCC(=O)Nc2nc3ccccc3s2)nnc1-c1ccccc1O")
"6.76% (inactive)"
>>> value_measured("COc1cc(C(=S)N2CCOCC2)ccc1O")
"-0.65% (inactive)"
>>> value_measured("Cc1ccc(SCC(=O)Nc2ccc3c(c2)OCCO3)cc1")
"0.94% (inactive)"
>>> value_measured("Nc1ccc2nc3c(=O)[nH]c(=S)[nH]c3nc2c1")
"55.7% (active)"
>>> value_measured("Cc1ccc(S(=O)(=O)NNC(=S)NC(C)(C)C)cc1")
"2.84% (inactive)"
>>> value_measured("COC(=O)Cc1csc(/N=C/c2c(O)n(-c3cccc(C(F)(F)F)c3)c(=O)c3ccccc23)n1")
"1.31% (inactive)"
>>> value_measured("COc1ccccc1NC(=O)CSc1nc2sc(C)c(C)c2c(=O)n1Cc1ccco1")
"-13.8% (inactive)"
>>> value_measured("C=CCn1c(N)cc(=O)nc1SCC(=O)Nc1cccc2ccccc12")
"30.1% (active)"
>>> value_measured("CC(NC(=S)NNS(=O)(=O)c1ccc(C(C)(C)C)cc1)c1ccccc1 (stereo not drawn)")
"96.5% (active)"
>>> value_measured("COc1ccc(C(=O)n2nc(-c3ccc(C)cc3)nc2N)cc1OC")
"-7.73% (inactive)"
>>> value_measured("COc1ccccc1OCC(=O)O/N=C(\\N)c1ccccn1")
"4.41% (inactive)"
>>> value_measured("Cc1ccnc(NC(=O)C(C)N2C(=O)c3ccccc3C2=O)c1 (stereo not drawn)")
"1.43% (inactive)"
>>> value_measured("COC(=O)c1sc2[nH]c(=S)n(N)c(=O)c2c1C")
"-5.75% (inactive)"
>>> value_measured("Cc1cc(C(=O)N/N=C/c2ccccc2[N+](=O)[O-])c(C)o1")
"2.6% (inactive)"
>>> value_measured("CCN1CCN(C(c2cccnc2)c2cc(Cl)c3cccnc3c2O)CC1 (stereo not drawn)")
"15.4% (inactive)"
>>> value_measured("CCn1c(SCC(=O)N/N=C/c2ccccc2OCC(=O)O)nnc1-c1ccc(C(C)(C)C)cc1")
"-4.63% (inactive)"
>>> value_measured("Oc1c(C(c2ccccn2)N2CCOCC2)ccc2cccnc12 (stereo not drawn)")
"5.26% (inactive)"
>>> value_measured("Cc1ccc(Nc2nc(N)nc(CSc3nnc(C)s3)n2)cc1")
"3.78% (inactive)"
>>> value_measured("CC1(C)CC(N(Cc2ccccc2)C(=O)Cc2ccccc2)CCO1 (stereo not drawn)")
"1.78% (inactive)"
>>> value_measured("CCC(C)(C)NC(=O)/C=C/c1cc(OC)c(OC)c(S(=O)(=O)N2CCc3ccccc32)c1")
"-2.6% (inactive)"
>>> value_measured("CCOc1ccccc1/C=N/NC(=O)CNC(=O)COc1ccccc1")
"0.46% (inactive)"
>>> value_measured("CC(Nc1nc(N2CCN(CCO)CC2)nc2ccccc12)c1ccccc1 (stereo not drawn)")
"1.5% (inactive)"
>>> value_measured("CCOc1ccc(/C=N/NC(=O)CSc2ccccn2)cc1O")
"-2.92% (inactive)"
>>> value_measured("COC(=O)/C=C(\\Oc1ccccc1)C1(O)CCCCC1")
"3.79% (inactive)"
>>> value_measured("Cc1c(Cl)cccc1NC(=O)CC1SC(=NCC2CCCO2)NC1=O (stereo not drawn)")
"1.68% (inactive)"
>>> value_measured("Clc1ccc(-c2nc3ccccn3c2CN2CCSCC2)cc1")
"3.32% (inactive)"
>>> value_measured("C=C1C2C[C@H](O)C(C)(C)[C@@]2(O)[C@H](O)C[C@]23C[C@@](C)(O)[C@H](CC[C@H]12)[C@H]3O (stereo partly drawn)")
"-4.67% (inactive)"
>>> value_measured("Cc1ccc(N2C(=O)c3ccccc3C2(O)c2ncc[nH]2)cc1 (stereo not drawn)")
"55.4% (active)"
>>> value_measured("COc1ccc(C(=O)Cn2nnc(-c3ccc(N4CCOCC4)cc3)n2)cc1OC")
"-9.64% (inactive)"
>>> value_measured("Fc1c(F)c(C(F)(F)F)c(F)c(F)c1N1CCN(c2ccc3nnc(C(F)(F)F)n3n2)CC1")
"35.1% [fluorescence artefact?] (active)"
>>> value_measured("O=[N+]([O-])C(=c1ccc2c(c1)N1C3=C(CCCC3)CC3CCCCC31N=2)[N+](=O)[O-] (stereo not drawn)")
"34.6% (active)"
>>> value_measured("Cc1cc(Br)ccc1SCC(=O)OCC(=O)NCc1ccc2c(c1)OCO2")
"2.11% (inactive)"
>>> value_measured("O=C(C1CCCN1S(=O)(=O)c1ccc(Br)cc1)N1CCOCC1 (stereo not drawn)")
"-1.1% (inactive)"
>>> value_measured("Cc1cc(C)cc(NC(=O)COC(=O)c2cc(C)oc2C)c1")
"-0.87% (inactive)"
>>> value_measured("COc1ccc(N2CCN(C(=O)/C(C#N)=C/c3ccccc3)CC2)cc1")
"1.4% (inactive)"
>>> value_measured("NC(N)=Nc1nc2ccc(Br)cc2c(=O)[nH]1")
"-3.42% (inactive)"
>>> value_measured("FC(F)(F)c1nnc2ccc(N3CCN(c4ccccc4)CC3)nn12")
"0.95% (inactive)"

The reported numbers originate from PubChem BioAssay AID782.
